molecular target: Nuclear receptor subfamily 1 group I member 2 (Rattus norvegicus); assay: Rat pregnane X receptor (rPXR) activation by small molecules, qHTS assay (AID 1346983); conditions: rPXR luciferase reporter cells, One-Glo luminescence, 24 h; hits give high values; further: on the % scale 0 is the no-effect control and ±100 the full control effect; nearly all actives have a fitted effect of over 20% in size
Records with an inconclusive call do not appear.
observationType: max activation (%)
Numbers only, in %.

# per-item lookup of max activation; items listed below
1. Cc1cc(C)c(/C=C2\C(=O)Nc3ccccc32)[nH]1
2. CCCCC/C=C\C/C=C\CCCCCCCC(=O)O
3. Cc1nc(-c2ccc(Cl)cc2)oc1COC(C)(C)C(=O)O

Given back:
-0.232
-4.54
-7.31

====

assay: qHTS assay to identify small molecule agonists of H2AX (AID 1224845); conditions: CHO-K1 phospho-H2AX Ser139 HTRF, 3 h; series mostly up to 154 µM
Inconclusive results are not listed. Activity calls are given as the source filed them. The call rests on the fitted dose curve; in most records, active means well fitted activation curve with a large enough effect in the signal ratio in the repeat runs (not every such curve was filed as active); inconclusive means weak or mixed curves; inactive means flat fitted curve, though single readings scatter; the % refers to the signal ratio.
// allowed return values: active, inactive

{"molecule": "Cc1c2ccccc2c(C)c2c1ccc1ccccc12", "category": "inactive"}
{"molecule": "COc1ccc2c(c1)c(CC(=O)OC/C=C(\\C)CC/C=C(\\C)CCC=C(C)C)c(C)n2C(=O)c1ccc(Cl)cc1", "category": "inactive"}
{"molecule": "O=[N+]([O-])c1ccc(O)cc1C(F)(F)F", "category": "inactive"}
{"molecule": "CCCCCC/C=C\\CCCCCCCC(=O)O", "category": "inactive"}

Pending molecule:
Asked: What did the test return for COc1cccc2c1C(=O)c1c(O)c3c(c(O)c1C2=O)C[C@@](O)(C(C)=O)C[C@@H]3O[C@H]1C[C@H](N)[C@H](O)[C@H](C)O1 ?
Given back: active

====

experiment: qHTS assay to identify small molecule agonists of the progesterone receptor (PR) signaling pathway - cell viability counter screen (AID 1346799); conditions: PR-UAS-bla HEK293T viability, CellTiter-Glo luminescence, 16 h; series mostly up to 92.4 µM; further: nearly all actives have a fitted effect of over 45% in size
Inconclusive results are not listed. Activity calls are given as the source filed them. Calls come from the whole dose curve.
// allowed return values: active, inactive

These recorded examples may help you get a feel for the data.
{"molecule": "CCCCCCCCCCCCCCCC[N+](C)(C)CC", "category": "active"}
{"molecule": "CCCNCCC", "category": "inactive"}
{"molecule": "Oc1c(I)cc(Cl)c2cccnc12", "category": "inactive"}
{"molecule": "O=C(/C=C/c1ccccc1)OC/C=C/c1ccccc1", "category": "inactive"}
{"molecule": "c1ccc(SSc2ccccc2)cc1", "category": "inactive"}

Asked: What did the test return for OC[C@@H](O)[C@@H](O)CO ?
Given back: inactive

Asked: Can you handle CCC(CC)C(C)CCOC(C)=O (stereo not given) next?
Given back: inactive

Asked: Can you handle CC(C)(C)C1CCC(=O)CC1 next?
Given back: inactive

Asked: Can you handle O=C(O)c1cc(O)c2ccccc2c1O next?
Given back: inactive

Asked: Can you handle CCCCCCCCCCOC(=O)c1ccccc1C(=O)OCCCCCCCC next?
Given back: inactive

====

biological target: Nuclear receptor subfamily 1 group I member 2 (Homo sapiens) (UniProt O75469); test: CYP3A4 induction through human pregnane X receptor (PXR) by small molecules, qHTS assay (AID 1346984); conditions: DPX-2 HepG2 PXR, CYP3A4-luciferin luminescence, 24 h; series mostly up to 46.1 µM; further: nearly all actives have a fitted effect of over 40% in size; on activation: on the % scale 0 is the no-effect control and ±100 the full control effect
Records with an inconclusive call do not appear. Active and inactive are the calls of the source. The call rests on the fitted dose curve; in most records, active means well fitted activation curve with a large enough effect in the repeat runs; inconclusive means weak or mixed curves; inactive means no such curve, though single readings can be large or run the other way.
// allowed return values: active, inactive

These recorded examples may help you get a feel for the data.
{"molecule": "Nc1nc2c(ncn2COCCO)c(=O)[nH]1", "category": "inactive"}
{"molecule": "CC(C(=O)O)c1ccc2c(c1)[nH]c1ccc(Cl)cc12 (configuration not stated)", "category": "inactive"}
{"molecule": "Cc1cc(C(C#N)c2ccc(Cl)cc2)c(Cl)cc1NC(=O)c1cc(I)cc(I)c1O (configuration not stated)", "category": "inactive"}
{"molecule": "Cc1ccc(C(C)C)cc2c(C)ccc1-2", "category": "inactive"}
{"molecule": "O=C(O)c1cc(-c2ccc(F)cc2F)ccc1O", "category": "inactive"}
{"molecule": "Cc1cc(-n2nc3ccc(Cl)cc3n2)c(O)c(C(C)(C)C)c1", "category": "inactive"}
{"molecule": "CCCCC/C=C\\C/C=C\\CCCCCCCC(=O)O", "category": "inactive"}
{"molecule": "CC(C)Cn1cnc2c(N)nc3ccccc3c21", "category": "inactive"}

Asked: What did the test return for CC1(C)[C@@H](O)CC[C@]2(C)[C@H]3C(=O)C=C4[C@@H]5C[C@@](C)(C(=O)O)CC[C@]5(C)CC[C@@]4(C)[C@]3(C)CC[C@@H]12 ?
Given back: inactive

Asked: Can you handle CCCCN(CCCC)CC(O)c1cc(Cl)cc2c1-c1ccc(Cl)cc1/C2=C/c1ccc(Cl)cc1 (configuration not stated) next?
Given back: active

Asked: Can you handle CCOc1ccc2ccccc2c1C(=O)N[C@@H]1C(=O)N2[C@@H]1SC(C)(C)[C@@H]2C(=O)O next?
Given back: inactive

Asked: Can you handle CN(C)C(=O)COC(=O)Cc1ccc(OC(=O)c2ccc(N=C(N)N)cc2)cc1 next?
Given back: inactive

Asked: Can you handle Cc1cc(C(C)(C)C)cc(C)c1CC1=NCCN1 next?
Given back: inactive

Asked: Can you handle Cc1c(C)c2c(c(C)c1OC(=O)c1cccnc1)CC[C@@](C)(CCC[C@H](C)CCC[C@H](C)CCCC(C)C)O2 next?
Given back: inactive

Asked: Can you handle C[C@@H](O)[C@H](N)C(=O)O next?
Given back: inactive

Asked: Can you handle CC[N+](CC)(CC)CCOc1ccc(/C=C/c2ccccc2)cc1 next?
Given back: inactive

Asked: Can you handle COc1c(C)c2c(c(O)c1C/C=C(\C)CCC(=O)OCCN1CCOCC1)C(=O)OC2 next?
Given back: inactive

Asked: Can you handle CCCCCCCCCCCCCC[N+](C)(C)Cc1ccccc1 next?
Given back: inactive

Asked: Can you handle CN(C)c1ccc(C(=C2C=CC(=[N+](C)C)C=C2)c2ccc(N(C)C)cc2)cc1 next?
Given back: inactive

Asked: Can you handle CCc1oc2ccccc2c1C(=O)c1cc(I)c(O)c(I)c1 next?
Given back: active

Asked: Can you handle CCc1cccc(CC)c1NC(=O)CN(CC(=O)O)CC(=O)O next?
Given back: inactive

Asked: Can you handle C#C[C@]1(OC(C)=O)CC[C@H]2[C@@H]3CCC4=C[C@@H](OC(C)=O)CC[C@@H]4[C@H]3CC[C@@]21C next?
Given back: inactive
